biological target: kainate site (non-NMDA receptor); assay: Kainate site (non-NMDA receptor) binding affinity (London and Coyle method); details: Table 1, KA (kainate)
measured.metric: IC50 KA (µM)
One number for each entry, in µM.

Reference set, count: 5
| test.smiles | unit.descriptor | IC50 KA |
| --- | --- | --- |
| COc1ccc(NC(=O)N(C)Cc2c(C)c([N+](=O)[O-])cc3[nH]c(=O)c(=O)[nH]c23)cc1 | µM | 1.12 |
| Cc1c([N+](=O)[O-])cc2[nH]c(=O)c(=O)[nH]c2c1CN(C)C(=O)Nc1ccccc1 | µM | 0.82 |
| CCOC(=O)c1ccc(NC(=O)N(C)Cc2c(C)c([N+](=O)[O-])cc3[nH]c(=O)c(=O)[nH]c23)cc1 | µM | 18.4 |
| COc1ccc(OC)c(NC(=O)N(C)Cc2c(C)c([N+](=O)[O-])cc3[nH]c(=O)c(=O)[nH]c23)c1 | µM | 9.54 |
| Cc1c([N+](=O)[O-])cc2[nH]c(=O)c(=O)[nH]c2c1CN(C)C(=O)Nc1ccccc1C(F)(F)F | µM | 7.50 |

Hey, quick one: what's IC50 KA for each of these?
1. COc1ccc(NC(=S)N(C)Cc2c(C)c([N+](=O)[O-])cc3[nH]c(=O)c(=O)[nH]c23)cc1
2. Cc1ccc(NC(=O)N(C)Cc2c(C)c([N+](=O)[O-])cc3[nH]c(=O)c(=O)[nH]c23)c(C)c1

Resp:
1. 2.54
2. 6.7
